Origin of the recorded values: ChEMBL document CHEMBL1134691

# Test system: Candida parapsilosis
# Assay summary: Inhibition of Candida parapsilosis ATCC 22019 growth for 48 hours in vitro.
# Format: functional
# Experimental setup: Lodderomyces parapsilosis, ATCC 22019, 48 h; read-out: MIC
Each entry below lists one item and its recorded MIC value.
Respond numerically; units are µM and should not be typed.

> print(dat)
                                   compound  endpoint.result
1  CC(=O)OCC1C=C(c2cccc(Cl)c2)C(=O)O1 (stereo not given)             7.81
2  COc1ccc(C2=CC(COC(C)=O)OC2=O)cc1 (stereo not given)             62.5
3  CC(=O)N1CCN(c2ccc(OCC3COC(Cn4ccnc4)(c4ccc(Cl)cc4Cl)O3)cc2)CC1 (stereo not given)             0.11

Query: What does the record list as MIC for CC(C)(C)C(=O)OCC1C=C(c2ccc(Cl)c(Cl)c2)C(=O)O1 (stereo in doubt; (-)2c) ?
Response: 15.6

====

# Test system: Aspergillus fumigatus
# Assay summary: Inhibition of Aspergillus fumigatus 231 growth for 24 hours in vitro.
# Assay type: functional
# Experimental setup: Aspergillus fumigatus, 24 h; read-out: MIC
Measured property: MIC (µM)
Respond numerically; units are µM and should not be typed.

# annotated cases, reported MIC shown
> print(dat)
                                   compound            test.target  endpoint.result
1  O=C1OC(CO)C=C1c1ccc(Br)cc1 (centres undefined)  Aspergillus fumigatus             62.5
2  COc1ccc(C2=CC(CO)OC2=O)cc1 (centres undefined)  Aspergillus fumigatus              125

Moving on to another compound below.
Query: What does the record list as MIC for O=C1OC(COC(=O)c2ccc(Cl)cc2)C=C1c1ccc(Br)cc1 (centres undefined) ?
Response: 0.98

====

# Tested on: Candida albicans
# Assay summary: Inhibition of Candida albicans ATCC 44859 growth for 24 hours in vitro.
# Type: functional
# Experimental setup: Candida albicans, ATCC 44859, 24 h; read-out: MIC
Each entry below lists one item and its recorded MIC value.
Respond numerically; units are µM and should not be typed.

Molecule	Endpoint result
CC(=O)N1CCN(c2ccc(OCC3COC(Cn4ccnc4)(c4ccc(Cl)cc4Cl)O3)cc2)CC1 (stereo not drawn) [KETOCONAZOLE]	0.11
O=C1OC(CO)C=C1c1ccc(Br)cc1 (stereo not drawn)	31.2
CC(=O)OCC1C=C(c2ccc(Cl)c(Cl)c2)C(=O)O1 (stereo not drawn)	0.49
COc1ccc(C2=CC(CO)OC2=O)cc1 (stereo not drawn)	15.6
O=C1OC(COC(=O)c2ccc(Cl)cc2)C=C1c1cccc(Cl)c1 (stereo not drawn)	1.95

Moving on to another molecule below.
Query: What does the record list as MIC for C[C@@H]1[C@H](O)[C@@H](C)/C=C/C=C/C=C/C=C/C=C/C=C/C=C/[C@H](O[C@@H]2O[C@H](C)[C@@H](O)[C@H](N)[C@@H]2O)C[C@@H]2O[C@](O)(C[C@@H](O)C[C@@H](O)[C@H](O)CC[C@@H](O)C[C@@H](O)CC(=O)O[C@H]1C)C[C@H](O)[C@H]2C(=O)O [AMPHOTERICIN B] ?
Response: 1.08

====

# Test system: Clavispora lusitaniae
# Assay summary: Inhibition of Candida lusitaniae 2446/I growth for 24 hours in vitro.
# Type: functional
# Experimental setup: Clavispora lusitaniae, 24 h; read-out: MIC
Flag rule - MIC less than 4 µM flags fulfilled; the remaining entries get not fulfilled.

Query: Please determine if O=C1OC(COC(=O)c2ccc(Cl)cc2)C=C1c1ccc(Cl)c(Cl)c1 (centres undefined) is below 4 µM in terms of MIC.
Response: fulfilled

Query: Please determine if C[C@@H]1[C@H](O)[C@@H](C)/C=C/C=C/C=C/C=C/C=C/C=C/C=C/[C@H](O[C@@H]2O[C@H](C)[C@@H](O)[C@H](N)[C@@H]2O)C[C@@H]2O[C@](O)(C[C@@H](O)C[C@@H](O)[C@H](O)CC[C@@H](O)C[C@@H](O)CC(=O)O[C@H]1C)C[C@H](O)[C@H]2C(=O)O [AMPHOTERICIN B] is below 4 µM in terms of MIC.
Response: fulfilled

====

# Test system: Aspergillus fumigatus
# Assay summary: Inhibition of Aspergillus fumigatus 231 growth for 24 hours in vitro.
# Type: functional
# Experimental setup: Aspergillus fumigatus, 24 h; read-out: MIC
Measured property: log10 MIC (log10 of the value in µM)
Base-10 log of MIC, unit µM.

# annotated cases, reported log10 MIC shown
> print(dat)
                                   compound            test.target  endpoint.result
1  COc1ccc(C2=CC(COC(C)=O)OC2=O)cc1 (configuration not stated)  Aspergillus fumigatus             0.59
2  O=C1OC(COC(=O)c2ccc(Cl)cc2)C=C1c1cccc(Cl)c1 (configuration not stated)  Aspergillus fumigatus             0.29
3  O=C1OC(COC(=O)c2ccc(Cl)cc2)C=C1c1ccc(Cl)c(Cl)c1 (configuration not stated)  Aspergillus fumigatus            -0.01

Query: What does the record list as log10 MIC for CC(=O)OCC1C=C(c2ccc(Cl)c(Cl)c2)C(=O)O1 (configuration not stated) ?
Response: -0.01

Query: What does the record list as log10 MIC for COc1ccc(C2=CC(COC(=O)c3ccc(Cl)cc3)OC2=O)cc1 (configuration not stated) ?
Response: 1.49

Query: What does the record list as log10 MIC for O=C1OC(CO)C=C1c1ccc(Cl)c(Cl)c1 (configuration not stated) ?
Response: 1.80

Query: What does the record list as log10 MIC for CC(=O)OCC1C=C(c2cccc(Cl)c2)C(=O)O1 (configuration not stated) ?
Response: 0.29

Query: What does the record list as log10 MIC for COc1ccc(C2=CC(COC(=O)C(C)(C)C)OC2=O)cc1 (configuration not stated) ?
Response: 0.89

====

# Tested on: Pichia kudriavzevii
# Assay summary: Inhibition of Candida krusei E28 growth for 48 hours in vitro.
# Assay type: functional
# Experimental setup: Pichia kudriavzevii, 48 h; read-out: MIC
Flag rule - MIC less than 20 µM flags rule met; the remaining entries get rule not met.

> print(dat)
                                   compound  assigned.class
1  O=C1OC(CO)C=C1c1ccc(Br)cc1 (stereo unspecified)    rule not met
2  CC(C)(C)C(=O)OCC1C=C(c2cccc(Cl)c2)C(=O)O1 (stereo unspecified)        rule met
3  CC(=O)N1CCN(c2ccc(OCC3COC(Cn4ccnc4)(c4ccc(Cl)cc4Cl)O3)cc2)CC1 (stereo unspecified)        rule met

Query: Please determine if O=C1OC(CO)C=C1c1cccc(Cl)c1 (stereo unspecified) is below 20 µM in terms of MIC.
Response: rule not met

Query: Please determine if O=C1OC(COC(=O)c2ccc(Cl)cc2)C=C1c1ccc(Br)cc1 (stereo unspecified) is below 20 µM in terms of MIC.
Response: rule met

Query: Please determine if CC(=O)OCC1C=C(c2ccc(Br)cc2)C(=O)O1 (stereo unspecified) is below 20 µM in terms of MIC.
Response: rule met

Query: Please determine if O=C1OC(COC(=O)c2ccc(Cl)cc2)C=C1c1cccc(Cl)c1 (stereo unspecified) is below 20 µM in terms of MIC.
Response: rule met

Query: Please determine if COc1ccc(C2=CC(COC(C)=O)OC2=O)cc1 (stereo unspecified) is below 20 µM in terms of MIC.
Response: rule not met

Query: Please determine if O=C1OC(COC(=O)c2ccc(Cl)cc2)C=C1c1ccc(Cl)c(Cl)c1 (stereo unspecified) is below 20 µM in terms of MIC.
Response: rule met

Query: Please determine if COc1ccc(C2=CC(COC(=O)C(C)(C)C)OC2=O)cc1 (stereo unspecified) is below 20 µM in terms of MIC.
Response: rule not met

Query: Please determine if `OC(Cn1cncn1)(Cn1cncn1)c1ccc(F)cc1F` is below 20 µM in terms of MIC.
Response: rule not met

====

# System: Pichia kudriavzevii
# Assay summary: Inhibition of Candida krusei E28 growth for 24 hours in vitro.
# Format: functional
# Experimental setup: Pichia kudriavzevii, 24 h; read-out: MIC
Measured property: MIC (µM)
Respond numerically; units are µM and should not be typed.

> print(dat)
                                   compound  unit.of.measure  endpoint.result
1  O=C1OC(COC(=O)c2ccc(Cl)cc2)C=C1c1ccc(Br)cc1 (stereo unspecified)               µM             7.81
2  O=C1OC(COC(=O)c2ccc(Cl)cc2)C=C1c1cccc(Cl)c1 (stereo unspecified)               µM             15.6
3  O=C1OC(CO)C=C1c1ccc(Cl)c(Cl)c1 (stereo unspecified)               µM              125
4  COc1ccc(C2=CC(COC(=O)c3ccc(Cl)cc3)OC2=O)cc1 (stereo unspecified)               µM             31.2
5  CC(=O)OCC1C=C(c2ccc(Cl)c(Cl)c2)C(=O)O1 (stereo unspecified)               µM             3.91

Moving on to another compound below.
Query: What does the record list as MIC for `OC(Cn1cncn1)(Cn1cncn1)c1ccc(F)cc1F` ?
Response: 16
